# Target desc: Neu5Ac(a2-8)Neu5Ac(a2-8)Neu5Ac
# Assay protocol: glycan array binding signal (z-score within array); higher = stronger binding
# Reported conditions: glycan notation: IUPAC condensed, linker removed
Only a selection was taken, and the strongest signals are over-represented in it overall.
# glycan array binding signal (z-score) per record follows
Readout kind: glycan array binding signal (z-score)

[
  {
    "Binder": "ABA (Agaricus bisporus), Q00022 (protein) MTYTISIRVYQTTPKGFFRPVERTNWKYANGGTWDEVRGEYVLTMGGSGTSGSLRFVSSDTDESFVATFGVHNYKRWCDIVTNLTNEQTALVINQEYYGVPIRDQARENQLTSYNVANAKGRRFAIEYTVTEGDNLKANLIIG",
    "Test result": -0.247
  },
  {
    "Binder": "DGL (Dioclea grandiflora), P08902 (protein) ADTIVAVELDSYPNTDIGDPNYPHIGIDIKSIRSKSTARWNMQTGKVGTVHISYNSVAKRLSAVVSYSGSSSTTVSYDVDLNNVLPEWVRVGLSATTGLYKETNTILSWSFTSKLKTNSIADENSLHFSFHKFSQNPKDLILQGDAFTDSDGNLELTKVSSSGDPQGNSVGRALFYAPVHIWESSAVVASFDATFTFLIKSPDREPADGITFFIANTDTSIPSGSGGRLLGLFPDAN",
    "Test result": -0.175
  },
  {
    "Binder": "Dectin-1 CTLD (Mus musculus), Q6QLQ4 (protein) MKYHSHIENLDEDGYTQLDFSTQDIHKRPRGSEKGSRAPSSPWRPIAVGLGILCFVVVVVAAVLGALAFWRHNSGRNPEEKDNFLSRNKENHKPTESSLDEKVAPSKASQTTGGFSQSCLPNWIMHGKSCYLFSFSGNSWYGSKRHCSQLGAHLLKIDNSKEFEFIESQTSSHRINAFWIGLSRNQSEGPWFWEDGSAFFPNSFQVRNTVPQESLLHNCVWIHGSEVYNQICNTSSYSICEKEL",
    "Test result": 5.28
  }
]
